Catalogue of pKi values
- Tested System: GST-MCL-1 (Homo sapiens, UniProt Q07820)
- Sequence (Q07820 whole entry): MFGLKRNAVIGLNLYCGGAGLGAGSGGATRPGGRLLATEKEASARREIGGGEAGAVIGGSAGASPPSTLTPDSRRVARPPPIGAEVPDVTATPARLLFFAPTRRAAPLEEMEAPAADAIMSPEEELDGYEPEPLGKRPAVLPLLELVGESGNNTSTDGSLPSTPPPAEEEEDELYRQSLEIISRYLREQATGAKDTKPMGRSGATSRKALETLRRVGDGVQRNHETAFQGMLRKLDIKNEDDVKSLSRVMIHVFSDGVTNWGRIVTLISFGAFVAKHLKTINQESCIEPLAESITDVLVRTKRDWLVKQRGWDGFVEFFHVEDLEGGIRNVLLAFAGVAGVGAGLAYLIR
- Experiment Description: TR-FRET MCL-1 binding assay (competition with probe F-Bak)
- Conditions: without HS; read-out: MCL-1 Binding Ki
The scale used: pKi is minus the common logarithm of the concentration in molar units.

Given Cc1c(Cl)c2c(Cl)c(C)c1-c1c(-c3ccc(F)cc3)sc3ncnc(c13)O[C@@H](C(=O)O)Cc1cc(ccc1OCc1ccnc(N3C[C@H](O)[C@@H](O)C3)n1)OC[C@@H](CN1CCN(C)CC1)O2 , state its recorded pKi.
9.80

Please give the measured pKi for this compound: Cc1c(Cl)c2c(Cl)c(C)c1-c1c(-c3ccc(F)cc3)sc3ncnc(c13)O[C@@H](C(=O)O)Cc1cc(ccc1OCc1ccnc([C@]3(O)CCCC[C@H]3O)n1)OC[C@@H](CN1CCN(C)CC1)O2
10.38

Would you kindly share the measured pKi for COCCOCCOCCC1CCN(c2nccc(COc3ccc4cc3C[C@H](C(=O)O)Oc3ncnc5sc(-c6ccc(F)cc6)c(c35)-c3c(C)c(Cl)c(c(Cl)c3C)O[C@H](CN3CCN(C)CC3)CO4)n2)CC1 ?
9.46

###

- Tested System: GST-MCL-1 (Homo sapiens, UniProt Q07820)
- Experiment Description: TR-FRET MCL-1 binding assay (competition with probe F-Bak)
- Conditions: without HS; read-out: MCL-1 Binding Ki
Documented pKi across a set of molecules
Here pKi is given on a logarithmic scale as minus log10 of the concentration in mol/L.

INSERT INTO results (molecule, tested_system, readout_value) VALUES
  ('COCCOCCOCCOCC1(c2nccc(COc3ccc4cc3C[C@H](C(=O)O)Oc3ncnc5sc(-c6ccc(F)cc6)c(c35)-c3c(C)c(Cl)c(c(Cl)c3C)O[C@H](CN3CCN(C)CC3)CO4)n2)CCC1', 'GST-MCL-1 (Homo sapiens, UniProt Q07820)', 10.03),
  ('Cc1c(Cl)c2c(Cl)c(C)c1-c1c(-c3ccc(F)cc3)sc3ncnc(c13)O[C@@H](C(=O)O)Cc1cc(ccc1OCc1ccnc(N3C[C@H]4C[C@@H](C3)[C@H]4O)n1)OC[C@@H](CN1CCN(C)CC1)O2', 'GST-MCL-1 (Homo sapiens, UniProt Q07820)', 10.22),
  ('Cc1c(Cl)c2c(Cl)c(C)c1-c1c(-c3ccc(F)cc3)sc3ncnc(c13)O[C@@H](C(=O)O)Cc1cc(ccc1OCc1ccnc(-c3ccc(S(C)(=N)=O)cc3)n1)OC[C@@H](CN1CCN(C)CC1)O2 (stereo partly drawn)', 'GST-MCL-1 (Homo sapiens, UniProt Q07820)', 10.48),
  ('COCCOCCOCC1(F)CC=C(c2nccc(COc3ccc4cc3C[C@H](C(=O)O)Oc3ncnc5sc(-c6ccc(F)cc6)c(c35)-c3c(C)c(Cl)c(c(Cl)c3C)O[C@H](CN3CCN(C)CC3)CO4)n2)CC1 (single isomer, unassigned) [Example 87]', 'GST-MCL-1 (Homo sapiens, UniProt Q07820)', 11.40);

Report pKi for Cc1c(Cl)c2c(Cl)c(C)c1-c1c(-c3ccc(F)cc3)sc3ncnc(c13)O[C@@H](C(=O)O)Cc1cc(ccc1OCc1ccnc(C3CCS(=O)(=O)CC3)n1)OC[C@@H](CN1CCN(C)CC1)O2 please.
10.74

Any idea what pKi was measured for COCCOCCOCCOCCOCC1(c2nccc(COc3ccc4cc3C[C@H](C(=O)O)Oc3ncnc5sc(-c6ccc(F)cc6)c(c35)-c3c(C)c(Cl)c(c(Cl)c3C)O[C@H](CN3CCN(C)CC3)CO4)n2)CCC1 ?
10.30

State the recorded pKi for this entry: COCCOCCOCCN1CCN(C[C@@H]2COc3ccc(OCc4ccnc(-c5ccccc5OC)n4)c(c3)C[C@H](C(=O)O)Oc3ncnc4sc(-c5ccc(F)cc5)c(c34)-c3ccc(c(Cl)c3C)O2)CC1 (atropisomer, axis not shown)
11.05

Reported pKi for Cc1c(Cl)c2c(Cl)c(C)c1-c1c(-c3ccc(F)cc3)sc3ncnc(c13)O[C@@H](C(=O)O)Cc1cc(ccc1OCc1ccnc(C3=CCC(CC(=O)O)CC3)n1)OC[C@@H](CN1CCN(C)CC1)O2 (single isomer, unassigned) [Example 37] : what is it?
11.05

Fill in: pKi of COCCOCCOCCOc1cccc(-c2nccc(COc3ccc4cc3C[C@H](C(=O)O)Oc3ncnc5sc(-c6ccc(F)cc6)c(c35)-c3c(C)c(Cl)c(c(Cl)c3C)O[C@H](CN3CCN(C)CC3)CO4)n2)c1 is ___
11.05

Fill blank: measured pKi of the molecule Cc1c(Cl)c2c(Cl)c(C)c1-c1c(-c3ccc(F)cc3)sc3ncnc(c13)O[C@@H](C(=O)O)Cc1cc(ccc1OCc1ccnc(N3CC4(COC4)C3)n1)OC[C@@H](CN1CCN(C)CC1)O2 is ____.
10.07

Give its pKi value. Item: COCC(COC)Oc1nccc(COc2ccc3cc2C[C@H](C(=O)O)Oc2ncnc4sc(-c5ccc(F)cc5)c(c24)-c2c(C)c(Cl)c(c(Cl)c2C)O[C@H](CN2CCN(C)CC2)CO3)n1
11.10

Param item = COCCOCCOCCOc1ccc(COc2ccc3cc2C[C@H](C(=O)O)Oc2ncnc4sc(-c5ccc(F)cc5)c(c24)-c2c(C)c(Cl)c(c(Cl)c2C)O[C@H](CN2CCN(C)CC2)CO3)nc1 ; retrieve measured pKi.
9.80

###

Measured log10 Ki values are reported for all entries that follow.
- Tested System: GST-MCL-1 (Homo sapiens)
- Experiment Description: TR-FRET MCL-1 binding assay (competition with probe F-Bak)
- Conditions: without HS; read-out: MCL-1 Binding Ki
- Protocol: Tb-anti-GST antibody was purchased from Invitrogen (Catalog No. PV4216). […] The samples were then mixed on a shaker for 1 minute and incubated for an additional 2 hours at room temperature. […] Fluorescence was measured on the Envision (Perkin Elmer) using a 340/35 nm excitation filter and 520/525 (F-Bak) and 495/510 nm (Tb-labeled anti-his antibody) emission filters. […]
Quick note: numbers are log10 of Ki, with nM as the unit.

INSERT INTO assay_data (compound, readout_value) VALUES
  ('Cc1c2ccc(c1Cl)O[C@H](CN1CCN(C)CC1)COc1ccc(OCc3ccnc(-c4ccccc4C(=O)O)n3)c(c1)C[C@H](C(=O)O)Oc1ncnc3sc(-c4ccc(F)cc4)c-2c13 (atropisomer, axis not shown) [Example 19]', -2.22),
  ('COCCOCCOCCOCCOCCOCC1(F)CC=C(c2nccc(COc3ccc4cc3C[C@H](C(=O)O)Oc3ncnc5sc(-c6ccc(F)cc6)c(c35)-c3c(C)c(Cl)c(c(Cl)c3C)O[C@H](CN3CCN(C)CC3)CO4)n2)CC1 (single isomer, unassigned) [Example 97]', -1.80),
  ('Cc1c2ccc(c1Cl)O[C@H](CN1CCN(C)CC1)COc1ccc(OCc3ccnc(-c4cccc(=O)n4C)n3)c(c1)C[C@H](C(=O)O)Oc1ncnc3sc(-c4ccc(F)cc4)c-2c13 [Example 28]', -1.68),
  ('Cc1c(Cl)c2c(Cl)c(C)c1-c1c(-c3ccc(F)cc3)sc3ncnc(c13)O[C@@H](C(=O)O)Cc1cc(ccc1OCc1ccnc(-c3ccc(OCCN4CCP(C)(=O)CC4)cc3)n1)OC[C@@H](CN1CCN(C)CC1)O2 [Example 71]', -1.41),
  ('COC1CC2(C1)CN(c1nccc(COc3ccc4cc3C[C@H](C(=O)O)Oc3ncnc5sc(-c6ccc(F)cc6)c(c35)-c3c(C)c(Cl)c(c(Cl)c3C)O[C@H](CN3CCN(C)CC3)CO4)n1)C2 [Example 79]', -1.06);

Read the next record carefully.
Report log10 Ki for COCCOCCOCC1(F)CC=C(c2nccc(COc3ccc4cc3C[C@H](C(=O)O)Oc3ncnc5sc(C6CCC6)c(c35)-c3c(C)c(Cl)c(c(Cl)c3C)O[C@H](CN3CCN(C)CC3)CO4)n2)CC1 (single isomer, unassigned) [Example 130] tested on GST-MCL-1 (Homo sapiens).
-1.59

###

- Tested System: GST-MCL-1 (Homo sapiens, UniProt Q07820)
- Experiment Description: TR-FRET MCL-1 binding assay (competition with probe F-Bak)
- Conditions: MCL-1 Binding Ki (nM, 10% HS), in the presence of 10% HS (human serum)
Measured Parameter: Ki
The answer consists of two parts: a number and, after it, its unit.

Would you please look over these solved cases?
INSERT INTO assay_data (compound, tested_system, readout_value) VALUES
  ('CO[C@H]1O[C@H](COc2ccc(-c3nccc(COc4ccc5cc4C[C@H](C(=O)O)Oc4ncnc6sc(-c7ccc(F)cc7)c(c46)-c4ccc(c(Cl)c4C)O[C@H](CN4CCN(C)CC4)CO5)n3)cc2)[C@@H](OC)[C@H](OC)[C@@H]1OC', 'GST-MCL-1 (Homo sapiens, UniProt Q07820)', '0.547 nM'),
  ('Cc1c(Cl)c2c(Cl)c(C)c1-c1c(-c3ccc(F)cc3)sc3ncnc(c13)O[C@@H](C(=O)O)Cc1cc(ccc1OCc1ccnc([C@]3(O)CCCC[C@H]3O)n1)OC[C@@H](CN1CCN(C)CC1)O2', 'GST-MCL-1 (Homo sapiens, UniProt Q07820)', '0.193 nM'),
  ('Cc1c(Cl)c2c(Cl)c(C)c1-c1c(-c3ccc(F)cc3)sc3ncnc(c13)O[C@@H](C(=O)O)Cc1cc(ccc1OCc1ccnc(N3CCO[C@H](COCCOCC4COCCO4)C3)n1)OC[C@@H](CN1CCN(C)CC1)O2 (some centres unmarked)', 'GST-MCL-1 (Homo sapiens, UniProt Q07820)', '0.172 nM'),
  ('COCCOCCOCCOCC1(c2nccc(COc3ccc4cc3C[C@H](C(=O)O)Oc3ncnc5sc(-c6ccc(F)cc6)c(c35)-c3c(C)c(Cl)c(c(Cl)c3C)O[C@H](CN3CCN(C)CC3)CO4)n2)CC1', 'GST-MCL-1 (Homo sapiens, UniProt Q07820)', '1.21 nM');

Let's switch to this compound now.
Which Ki value belongs to COCCOCCOCCOCCOc1nccc(COc2ccc3cc2C[C@H](C(=O)O)Oc2ncnc4sc(-c5ccc(F)cc5)c(c24)-c2c(C)c(Cl)c(c(Cl)c2C)O[C@H](CN2CCN(C)CC2)CO3)n1 ?
0.485 nM
